Target System: porcine intestinal vitamin D receptor (Sus scrofa, UniProt A3RGC1)
Sequence (A3RGC1 1-427): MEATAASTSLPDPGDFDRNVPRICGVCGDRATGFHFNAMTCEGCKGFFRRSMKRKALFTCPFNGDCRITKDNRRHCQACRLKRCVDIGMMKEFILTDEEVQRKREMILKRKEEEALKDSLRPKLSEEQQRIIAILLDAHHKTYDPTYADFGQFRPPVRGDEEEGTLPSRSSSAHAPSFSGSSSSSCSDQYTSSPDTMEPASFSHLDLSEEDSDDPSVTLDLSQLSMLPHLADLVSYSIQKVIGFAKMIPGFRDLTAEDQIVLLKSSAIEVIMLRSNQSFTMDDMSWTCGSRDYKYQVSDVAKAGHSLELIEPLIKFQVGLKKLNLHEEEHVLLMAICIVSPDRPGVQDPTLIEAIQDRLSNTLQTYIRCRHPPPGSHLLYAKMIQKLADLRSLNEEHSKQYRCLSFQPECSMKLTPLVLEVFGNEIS
Assay Remarks: Competitive binding to the porcine intestinal vitamin D receptor
Condition Context: concentration for 50% displacement of radiolabeled 1α,25-(OH)2D3; read-out: VDR Binding ED50
Reported Endpoint: pEC50
Please report pEC50 as the negative decimal logarithm of the molar concentration, giving only the number.

Sample C=C1[C@H](O)CC(=C/C=C2\CCC[C@@]3(C)C2CCC3[C@@H](C)CCCC2(O)CCCC2)C[C@H]1O (stereo partly shown) — what was its pEC50? 8.57

Same question, C=C1[C@H](O)CC(=C/C=C2\CCC[C@@]3(C)C2CCC3[C@@H](C)CCCC2(OC)CCCC2)C[C@H]1O (stereo partly shown) this time 7.82

Same question, C=C1[C@H](O)CC(=C/C=C2\CCC[C@@]3(C)C2CCC3[C@@H](C)CCCC(O)(CC)CC)C[C@H]1O (stereo partly shown) this time 8.37

Same question, C=C1[C@H](O)CC(=C/C=C2\CCC[C@@]3(C)C2CCC3[C@@H](C)CCC=C2CCCC2)C[C@H]1O (stereo partly shown) this time 7.54

###

System: HL-60 cells
Assay Remarks: Differentiation of HL-60 promyelocytes to monocytes (NBT reduction)
Type: cell-based
Condition Context: ratio of analog ED50 to ED50 for 1α,25-(OH)2D3
Reported Endpoint: HL-60 Differentiation Activity ratio
Reply: number alone, nothing else.

Compound	Target System	Reported Endpoint	Value
C=C1[C@H](O)CC(=C/C=C2\CCC[C@@]3(C)C2CCC3[C@@H](C)CCCC(O)(CC)CC)C[C@H]1O (stereo partly shown)	HL-60 cells	HL-60 Differentiation Activity ratio	0.01

Sample C=C1[C@H](O)CC(=C/C=C2\CCC[C@@]3(C)C2CCC3[C@@H](C)CCC=C2CCCC2)C[C@H]1O (stereo partly shown) — what was its HL-60 Differentiation Activity ratio? 1.0

Same question, C=C1[C@H](O)CC(=C/C=C2\CCC[C@@]3(C)C2CCC3[C@@H](C)CCCC2(OC)CCCC2)C[C@H]1O (stereo partly shown) this time 1.1

Same question, C=C1[C@H](O)CC(=C/C=C2\CCC[C@@]3(C)C2CCC3[C@@H](C)CCCC2(O)CCCC2)C[C@H]1O (stereo partly shown) this time 0.01
